test: Selectivity ratio of EC90 for inhibition of NS5A in Hepatitis C virus subtype 2b infected in human HuH7 cells assessed as reduction in viral to EC90 for inhibition of NS5A in Hepatitis C virus subtype 1a; assay type: cell-based
Exercise: state measured Selectivity ratio for each of the compounds provided.
Please state the value as a number alone, without comment.

Tell me the measured Selectivity ratio of COC(=O)N[C@H](C(=O)N1CCC[C@H]1c1ncc(-c2cc(F)c3c(c2)OC(c2ccc4c(c2)OCC[C@@H]4C)n2c-3cc3cc(-c4cnc([C@@H]5CCCN5C(=O)[C@@H](NC(=O)OC)C(C)C)[nH]4)ccc32)[nH]1)C(C)C (stereo not given in full) , please.
50

Also COC(=O)N[C@H](C(=O)N1CCC[C@H]1c1ncc(-c2cc(F)c3c(c2)OC(c2ccc4c(c2)OCCC42CC2)n2c-3cc3cc(-c4cnc([C@@H]5CCCN5C(=O)[C@@H](NC(=O)OC)C(C)C)[nH]4)ccc32)[nH]1)C(C)C.O=C(O)C(F)(F)F.O=C(O)C(F)(F)F (stereo not given in full) ?
40

Also, COC(=O)N[C@H](C(=O)N1CCC[C@H]1c1ncc(-c2cc(F)c3c(c2)OC(c2ccc4c(c2)OCCC4)n2c-3cc3cc(-c4cnc([C@@H]5CCCN5C(=O)[C@@H](NC(=O)OC)C(C)C)[nH]4)ccc32)[nH]1)C(C)C (stereo not given in full) please.
100

// next record COC(=O)N[C@H](C(=O)N1CCC[C@H]1c1ncc(-c2cc(F)c3c(c2)OC(c2ccc4c(c2)OC(C)(C)C4)n2c-3cc3cc(-c4cnc([C@@H]5CCCN5C(=O)[C@@H](NC(=O)OC)C(C)C)[nH]4)ccc32)[nH]1)C(C)C.O=C(O)C(F)(F)F.O=C(O)C(F)(F)F (stereo not given in full)
167

What about COC(=O)N[C@H](C(=O)N1CCC[C@H]1c1ncc(-c2cc(F)c3c(c2)OC(c2ccc4c(c2)OCC[C@H]4C)n2c-3cc3cc(-c4cnc([C@@H]5CCCN5C(=O)[C@@H](NC(=O)OC)C(C)C)[nH]4)ccc32)[nH]1)C(C)C (stereo not given in full) ?
50
